Sequence of the target: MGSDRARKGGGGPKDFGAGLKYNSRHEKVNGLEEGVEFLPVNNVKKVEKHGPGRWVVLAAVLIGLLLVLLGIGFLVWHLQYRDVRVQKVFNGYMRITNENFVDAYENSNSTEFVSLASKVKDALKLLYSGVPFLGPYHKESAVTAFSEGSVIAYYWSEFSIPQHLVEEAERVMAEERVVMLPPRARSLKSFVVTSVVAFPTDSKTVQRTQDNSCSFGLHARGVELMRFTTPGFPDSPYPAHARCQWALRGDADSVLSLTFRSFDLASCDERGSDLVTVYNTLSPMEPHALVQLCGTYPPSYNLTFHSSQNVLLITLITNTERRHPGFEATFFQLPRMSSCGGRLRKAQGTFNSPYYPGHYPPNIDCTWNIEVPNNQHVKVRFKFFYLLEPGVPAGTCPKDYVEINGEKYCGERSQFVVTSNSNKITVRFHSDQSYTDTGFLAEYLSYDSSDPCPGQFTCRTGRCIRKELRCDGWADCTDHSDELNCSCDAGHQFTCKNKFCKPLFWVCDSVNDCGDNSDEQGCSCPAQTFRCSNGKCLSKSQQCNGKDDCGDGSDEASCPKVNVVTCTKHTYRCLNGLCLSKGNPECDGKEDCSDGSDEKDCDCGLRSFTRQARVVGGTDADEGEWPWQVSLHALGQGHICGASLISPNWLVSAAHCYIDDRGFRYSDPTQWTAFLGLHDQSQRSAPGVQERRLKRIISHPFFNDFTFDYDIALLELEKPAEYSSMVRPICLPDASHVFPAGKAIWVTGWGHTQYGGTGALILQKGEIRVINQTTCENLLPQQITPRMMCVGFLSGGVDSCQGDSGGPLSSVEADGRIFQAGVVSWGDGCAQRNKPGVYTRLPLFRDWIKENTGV
READOUT: IC50

Q: Which measured IC50 value corresponds to CC1CN(CC2CCN(Cc3ccccc3)CC2)C(=O)N(c2cccc(C(=N)N)c2)C1 (stereo not shown) ?
A: 690 nM
